From: patent US9878992B2

pIC50: −log10 of the molar value.
This section lists pIC50 readings for MAP4K4 (Homo sapiens, UniProt O95819).

Nc1ncnc2ccc(-c3cccnc3-c3cc(F)cc(Cl)c3)cc12: > 6.30
Nc1ncnc2ccc(-c3cccnc3-c3cc(Cl)ccc3F)cc12: > 6.30

Please find the next compound below.
Form: Entry = Cc1cc(-c2ncccc2-c2ccc3[nH]ncc3c2)ccc1F | System = MAP4K4 (Homo sapiens, UniProt O95819) | pIC50 = ____
> 6.30
